pIC50: −log10 of the molar value. Structures can show the parent of a compound that is named as a salt.
pIC50 data for UniProt:Q9UM73 follow.

# Compound, Target under test, pIC50
records = [
    ("CN1CCN(C(=O)c2ccc(-c3cnc4c(c3)N(Cc3c(F)ccc(F)c3Cl)C(=O)CN4)cc2)CC1 [Example 7]", "UniProt:Q9UM73", "5.00 to 6.00"),
    ("O=C(c1ccc(-c2cnc3ncc(=O)n(Cc4ccccc4)c3c2)cc1)N1CCC(N2CCCC2)CC1 [Example 17, trifluoroacetic acid salt]", "UniProt:Q9UM73", "4.00 to 5.00"),
    ("O=C1CNc2ncc(I)cc2N1Cc1c(Cl)cccc1Cl [Example 136]", "UniProt:Q9UM73", "< 4.00"),
    ("O=C1CNc2ncc(I)cc2N1Cc1ccccc1OC(F)(F)F [Example 294]", "UniProt:Q9UM73", "4.00 to 5.00"),
    ("CN1CCN(C(=O)c2ccc(-c3cnc4c(c3)N(Cc3ccccc3)CCN4)cc2)CC1 [Example 37]", "UniProt:Q9UM73", "5.00 to 6.00"),
    ("O=C(c1cccc(-c2cnc3c(c2)N(Cc2cc(Cl)ccc2C(F)(F)F)CCN3)c1)N1CCC(c2c[nH]c3ccccc23)CC1 [Example 314]", "UniProt:Q9UM73", "6.00 to 7.00"),
    ("O=C(NC(c1ccccc1)c1ccccc1)c1cnc2c(c1)N(Cc1cc(Cl)ccc1Cl)CCN2 [Example 233]", "UniProt:Q9UM73", "5.00 to 6.00"),
    ("O=C(O)c1ccc(-c2cnc3c(c2)N(Cc2c(Cl)cccc2Cl)C(=O)CN3)cc1 [Example 140]", "UniProt:Q9UM73", "5.00 to 6.00"),
    ("Ic1cnc2c(c1)N(Cc1ccccc1)CCN2 [Example 33]", "UniProt:Q9UM73", "4.00 to 5.00"),
    ("O=C(O)CCNc1cccc(Br)n1 [Example 265]", "UniProt:Q9UM73", "< 4.00"),
    ("CN1CCN(C(=O)c2cnc3c(c2)N(Cc2cc(F)ccc2F)CCN3)CC1 [Example 79]", "UniProt:Q9UM73", "4.00 to 5.00"),
    ("O=C(c1ccccc1)N1CCNc2ncccc21 [Example 41]", "UniProt:Q9UM73", "< 4.00"),
    ("CC(c1cc(F)c(F)cc1F)N1C(=O)CNc2ncc(-c3ccc(C(=O)N4CCN(C)CC4)cc3)cc21 (stereo not shown) [Example 146, trifluoroacetic acid salt]", "UniProt:Q9UM73", "< 4.00"),
    ("Clc1ccc(Cl)c(CN2CCNc3ncc(-c4ccc(N5CCCC5)nc4)cc32)c1 [Example 166]", "UniProt:Q9UM73", "6.00 to 7.00"),
    ("CCOC(=O)c1ccc(-c2cnc3c(c2)N(Cc2ccccc2)C(=O)CN3)cn1 [Example 29]", "UniProt:Q9UM73", "6.00 to 7.00"),
    ("NCC#Cc1cnc2c(c1)N(Cc1c(Cl)cccc1Cl)CCN2 [Example 171, trifluoroacetic acid salt]", "UniProt:Q9UM73", "4.00 to 5.00"),
    ("CN1CCN(c2ccc(-c3cnc4c(c3)N(S(=O)(=O)c3ccccc3Cl)CCN4)cn2)CC1 [Example 126]", "UniProt:Q9UM73", "6.00 to 7.00"),
    ("O=C(c1ccc(-c2cnc3c(c2)N(Cc2cc(Cl)ccc2C(F)(F)F)CCN3)cc1)N1CCN(Cc2ccc(Cl)cc2)CC1 [Example 383]", "UniProt:Q9UM73", "6.00 to 7.00"),
    ("O=C(c1ccc(-c2cnc3c(c2)N(Cc2cc(Cl)ccc2C(F)(F)F)CCN3)cc1)N1CCC[C@H]1CN1CCCC1 [Example 430]", "UniProt:Q9UM73", "> 7.00"),
    ("CN1CCN(C(=O)c2ccc(-c3cnc4c(c3)N(C(=O)c3ccccc3)CCN4)cc2)CC1 [Example 54]", "UniProt:Q9UM73", "< 4.00"),
    ("c1ccc(CN2CCNc3ncc(-c4cccnc4)cc32)cc1 [Example 34]", "UniProt:Q9UM73", "5.00 to 6.00"),
    ("O=C1CNc2ncc(I)cc2N1Cc1cccnc1Cl [Example 299]", "UniProt:Q9UM73", "5.00 to 6.00"),
    ("CCNC(=O)c1ccc(-c2cnc3c(c2)N(Cc2ccccc2)C(=O)CN3)cc1 [Example 27]", "UniProt:Q9UM73", "4.00 to 5.00"),
    ("CC(c1cc(F)c(F)cc1F)N1CCNc2ncc(-c3ccc(C(=O)N4CCC[C@H]4CN4CCCC4)cc3)cc21 (stereo partly shown) [Example 148, trifluoroacetic acid salt]", "UniProt:Q9UM73", "6.00 to 7.00"),
    ("CN1CCN(c2ccc(-c3cnc4c(c3)N(Cc3cc(Cl)ccc3Cl)CCN4)cn2)CC1 [Example 180]", "UniProt:Q9UM73", "> 7.00"),
    ("Clc1cccc(Cl)c1CN1CCNc2ncc(-c3cccnc3)cc21 [Example 138, trifluoroacetic acid salt]", "UniProt:Q9UM73", "5.00 to 6.00"),
    ("O=C(c1cccc(-c2cnc3c(c2)N(Cc2cc(Cl)ccc2C(F)(F)F)CCN3)c1)N1CCN(c2ccccc2C(F)(F)F)CC1 [Example 319]", "UniProt:Q9UM73", "6.00 to 7.00"),
    ("Clc1ccc(Cl)c(CN2CCNc3ncc(C4=CCNCC4)cc32)c1 [Example 131]", "UniProt:Q9UM73", "5.00 to 6.00"),
    ("COc1ccc(N2CCN(C(=O)c3cccc(-c4cnc5c(c4)N(Cc4cc(Cl)ccc4C(F)(F)F)CCN5)c3)CC2)cc1 [Example 345]", "UniProt:Q9UM73", "6.00 to 7.00"),
    ("CN1CCN(c2ccc(-c3cnc4c(c3)C(Oc3cccc(Cl)c3)CCN4)cn2)CC1 (stereo not shown) [Example 281]", "UniProt:Q9UM73", "6.00 to 7.00"),
    ("CC(c1cc(F)ccc1F)N1C(=O)CNc2ncc(-c3ccc(C(=O)N4CCN(C)CC4)cc3)cc21 (stereo not shown) [Example 152, trifluoroacetic acid salt]", "UniProt:Q9UM73", "5.00 to 6.00"),
]

* * *

Target: c-Met (phospho-c-Met) in HT29 cells (Homo sapiens, UniProt P08581)
Construct: endogenous in cells; host or cells: HT29, A549 (HGF-stimulated), GTL-16
Sequence (P08581 25-1390): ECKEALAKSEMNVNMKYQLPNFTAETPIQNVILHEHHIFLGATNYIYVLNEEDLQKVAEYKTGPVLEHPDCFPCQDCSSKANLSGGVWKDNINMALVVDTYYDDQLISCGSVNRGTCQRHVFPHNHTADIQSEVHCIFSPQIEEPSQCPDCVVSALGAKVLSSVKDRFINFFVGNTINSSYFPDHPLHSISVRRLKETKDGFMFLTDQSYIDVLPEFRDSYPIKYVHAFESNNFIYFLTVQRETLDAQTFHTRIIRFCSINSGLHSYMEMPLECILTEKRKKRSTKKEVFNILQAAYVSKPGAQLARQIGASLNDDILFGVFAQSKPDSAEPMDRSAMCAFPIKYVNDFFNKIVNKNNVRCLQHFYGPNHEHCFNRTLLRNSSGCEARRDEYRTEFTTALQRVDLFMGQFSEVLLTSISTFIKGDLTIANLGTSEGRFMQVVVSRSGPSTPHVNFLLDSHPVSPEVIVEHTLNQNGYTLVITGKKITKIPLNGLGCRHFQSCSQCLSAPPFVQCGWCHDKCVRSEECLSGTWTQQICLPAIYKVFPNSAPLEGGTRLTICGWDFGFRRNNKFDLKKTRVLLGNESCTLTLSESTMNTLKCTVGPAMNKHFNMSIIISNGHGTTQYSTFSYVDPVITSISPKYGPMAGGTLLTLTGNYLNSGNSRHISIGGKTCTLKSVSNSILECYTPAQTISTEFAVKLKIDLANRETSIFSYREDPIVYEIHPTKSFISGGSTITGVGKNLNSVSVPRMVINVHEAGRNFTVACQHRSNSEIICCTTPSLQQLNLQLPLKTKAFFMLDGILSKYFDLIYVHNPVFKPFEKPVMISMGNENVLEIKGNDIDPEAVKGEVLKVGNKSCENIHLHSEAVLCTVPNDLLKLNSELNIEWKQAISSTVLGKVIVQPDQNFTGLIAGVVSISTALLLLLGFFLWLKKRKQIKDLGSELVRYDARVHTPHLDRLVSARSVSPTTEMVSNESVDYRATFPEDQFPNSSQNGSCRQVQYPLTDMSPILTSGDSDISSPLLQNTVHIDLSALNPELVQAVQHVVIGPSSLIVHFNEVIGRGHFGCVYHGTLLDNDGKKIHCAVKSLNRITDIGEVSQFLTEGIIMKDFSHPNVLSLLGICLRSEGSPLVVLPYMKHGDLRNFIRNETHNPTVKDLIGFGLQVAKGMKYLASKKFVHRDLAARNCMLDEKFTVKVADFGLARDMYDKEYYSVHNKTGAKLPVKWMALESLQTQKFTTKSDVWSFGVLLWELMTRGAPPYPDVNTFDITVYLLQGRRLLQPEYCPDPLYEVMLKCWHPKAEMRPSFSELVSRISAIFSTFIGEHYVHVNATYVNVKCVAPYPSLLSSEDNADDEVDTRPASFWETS
Assay: c-Met Cellular Activity/Autophosphorylation Assay, HT29 cells
Assay type: cell-based
Conditions: HT-29, 3 μM compound, read-out: c-Met autophosphorylation inhibition score, HT29 Cells (3 μM)

# Compound, inhibition at 3 µM
records = [
    ("CC(c1c(F)ccc(F)c1Cl)N1CCNc2ncc(-c3ccc(N4CCN(C)CC4)nc3)cc21 (stereo not shown)", "26 to 50%"),
    ("O=C(c1ccc(-c2cnc3c(c2)N(Cc2c(Cl)cccc2Cl)CCN3)cc1)N1CCC[C@H]1CN1CCCC1", "0 to 25%"),
    ("CN1CCN(c2ccc(-c3cnc4c(c3)N(Cc3cc(C(F)(F)F)ccc3Cl)CCN4)cn2)CC1", "26 to 50%"),
    ("O=C(c1ccc(-c2cnc3c(c2)N(Cc2c(F)ccc(F)c2Cl)CCN3)cc1)N1CCC[C@H]1CN1CCCC1", "0 to 25%"),
]

* * *

IC50 data for baculovirus-expressed ALK (Homo sapiens, UniProt Q9UM73) follow.
Structures can show the parent of a compound that is named as a salt.
Measured metric: IC50

# Compound, Measured metric, Experimental value
rows = [
    ("COc1ccc(N2CCN(C(=O)c3cnc4c(c3)N(Cc3cc(Cl)ccc3Cl)CCN4)CC2)cc1 [Example 247]", "IC50", "1000 to 10000 nM"),
    ("CN1CCC(NC(=O)c2cccc(-c3cnc4c(c3)N(Cc3cc(Cl)ccc3C(F)(F)F)CCN4)c2)CC1 [Example 329]", "IC50", "< 100 nM"),
    ("O=C(NCCN1CCCC1)c1ccc(-c2cnc3c(c2)N(Cc2cc(F)ccc2F)C(=O)CN3)cc1 [Example 58]", "IC50", "100 to 1000 nM"),
    ("Fc1ccc(F)c(CN2CCNc3ncc(-c4ccnc(N5CCOCC5)c4)cc32)c1Cl [Example 186]", "IC50", "< 100 nM"),
    ("CCOC(=O)c1cncc(-c2cnc3c(c2)N(Cc2cc(F)ccc2F)CCN3)c1 [Example 73]", "IC50", "100 to 1000 nM"),
    ("N#Cc1cnc2c(c1)N(Cc1cc(F)ccc1F)CCN2 [Example 77]", "IC50", "1000 to 10000 nM"),
    ("O=C(NCCN1CCCC1)c1ccc(-c2cnc3c(c2)N(Cc2ccccc2)C(=O)CN3)cc1 [Example 12, trifluoroacetic acid salt]", "IC50", "1000 to 10000 nM"),
    ("O=C(c1cccc(-c2cnc3c(c2)N(Cc2cc(Cl)ccc2C(F)(F)F)CCN3)c1)N1CCN(c2nccc3occc23)CC1 [Example 324]", "IC50", "100 to 1000 nM"),
]
